The entries that follow carry IC50 values tested on Dihydroorotate dehydrogenase (Plasmodium falciparum, UniProt Q54A96), drawn from several published reports.
Please use rule met for IC50 under 0.2 µM and rule not met for everything else, ties included.

>>> df
                                  smiles_str    class_name
 0  C/C(O)=C(\C#N)C(=O)Nc1ccc(-c2cccc(Cl)c2)cc1Cl  rule not met
 1       Cc1ccc(NC(=O)c2ccc3ccccc3c2)c(Cl)c1      rule met
 2   Cc1nc2c(Cl)cccc2n1-c1ccc(C(=O)NC2CC2)s1      rule met
 3      COCCOc1nc2nc(C)cc(Nc3ccc(Cl)cc3)n2n1  rule not met
 4     O=C(NC1CC1)c1ccc(-n2cnc3c(F)cccc32)s1      rule met
 5  Cc1c(C(=O)Nc2ccc(Cl)c(Cl)c2)cccc1[N+](=O)[O-]  rule not met
 6         CSc1nc2nc(C)cc(Nc3ccc(Cl)cc3)n2n1      rule met
 7         Cc1cc(Nc2cccc(Cl)c2)n2nc(CN)nc2n1  rule not met
 8      CNCCOc1nc2nc(C)cc(Nc3ccc(Cl)cc3)n2n1  rule not met
 9  CCOC(=O)c1sc(Nc2c(F)cc(-c3cccc(OC)c3)cc2F)nc1-c1ccccc1  rule not met
10         Cc1cc(O)n2nc(SCc3ccc(Br)cc3)nc2n1  rule not met
11  CCOC(=O)c1sc(Nc2ccc3c(c2)CCC3)nc1-c1ccccc1  rule not met
12           CC(=O)c1sc(Nc2ccc3ccccc3c2)nc1C  rule not met
13  CCOC(=O)c1sc(Nc2ccc(Cl)c(Cl)c2)nc1-c1ccccc1  rule not met
14   O=C(Nc1ccccc1C(=O)O)c1ccc(-c2ccccc2)cc1  rule not met
15       COCCc1nc2nc(C)cc(Nc3cccc(Cl)c3)n2n1  rule not met
16             Cc1cc(O)n2nc(SCc3ccccc3)nc2n1  rule not met
17     CC(=O)c1sc(Nc2ccc3cc4ccccc4cc3c2)nc1C  rule not met
18       CCOC(=O)c1sc(Nc2ccccc2)nc1-c1ccccc1  rule not met
19  CCOC(=O)c1sc(Nc2ccc(C)c(Cl)c2)nc1C(C)(C)C  rule not met
20  CCOC(=O)c1sc(Nc2ccc(Oc3ccccc3)c(Cl)c2)nc1-c1ccccc1  rule not met
21     Cc1cc(N)n2nc(SCc3ccc(Cl)c(Cl)c3)nc2n1  rule not met
22  C/C(O)=C(\C#N)C(=O)Nc1ccc(-c2ccccc2Cl)cc1  rule not met
23  CCOC(=O)c1sc(Nc2ccc(C)c(C)c2)nc1NC(=O)C1CC1  rule not met
24         Cc1cc(Nc2ccc(Cl)cc2)n2nc(CO)nc2n1  rule not met
25  CCOc1cccc(-c2ccc(NC(=O)/C(C#N)=C(/C)O)cc2)c1  rule not met
26  Cc1cc(Nc2ccc(C(F)(F)F)cc2)n2nc(OCCN)nc2n1  rule not met
27  N#C/C(C(=O)Nc1ccc([N+](=O)[O-])cc1)=C(/O)C1CC1  rule not met
28             O=C(Nc1ccccc1F)c1ccc2ccccc2c1  rule not met
29      Cc1cc(Nc2cccc(Cl)c2)n2nc(C(C)C)nc2n1      rule met

----------
pIC50 for Dihydroorotate dehydrogenase (Plasmodium falciparum) - collated from the literature.
- Test system: Dihydroorotate dehydrogenase (Plasmodium falciparum)
- Sequence (Q54A96 whole entry): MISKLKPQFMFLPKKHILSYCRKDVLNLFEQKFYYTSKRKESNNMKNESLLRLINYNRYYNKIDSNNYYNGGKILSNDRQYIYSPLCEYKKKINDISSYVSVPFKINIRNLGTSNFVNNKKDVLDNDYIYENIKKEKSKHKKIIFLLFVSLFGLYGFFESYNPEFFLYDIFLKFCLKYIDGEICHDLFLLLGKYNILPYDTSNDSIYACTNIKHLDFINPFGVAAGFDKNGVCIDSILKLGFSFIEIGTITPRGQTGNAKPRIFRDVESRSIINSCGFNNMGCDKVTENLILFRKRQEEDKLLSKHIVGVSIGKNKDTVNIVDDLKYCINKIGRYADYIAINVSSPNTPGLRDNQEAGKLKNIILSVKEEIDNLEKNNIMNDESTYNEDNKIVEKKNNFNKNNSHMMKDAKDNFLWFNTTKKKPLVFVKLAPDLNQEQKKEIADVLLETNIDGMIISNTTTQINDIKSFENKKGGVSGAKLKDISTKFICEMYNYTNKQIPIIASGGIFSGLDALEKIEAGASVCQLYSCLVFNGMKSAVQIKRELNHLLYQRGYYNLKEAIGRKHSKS
pIC50: −log10 of the molar value.
Measured endpoint: pIC50

                                 smiles_str  reported_result
0         CCOC(=O)c1sc(Nc2ccc(C)c(C)c2)nc1C           < 5.00
1  CCOC(=O)c1sc(Nc2cc(Cl)cc(Cl)c2)nc1-c1ccccc1           < 5.00
2  CCOC(=O)c1sc(Nc2ccc(C)c(F)c2)nc1C(C)(C)C           < 5.00
3     Cc1cc(Nc2ccc(Cl)cc2)n2nc(CC(C)C)nc2n1           < 5.00
4  CCOC(=O)c1sc(Nc2ccc(C)c(C)c2)nc1C(C)(C)C           < 5.00
5    Cc1cccc2c1nc(C)n2-c1ccc(C(=O)NC2CC2)s1             7.41
